# Assay: Solubilization of compounds in fatty acid / fatty acid salt (soluble, formulation clear)
# Run Conditions: aqueous with cosolvent or surfactant or cyclodextrin, concentration at which soluble and formulation clear, 0.25 M sodium oleate
Observed Property: solubility (µg/mL)
Numbers only, in µg/mL.

Inquiry: Returns the measured solubility for the input compound. Input: C[C@H]1O[C@@H](O[C@H]2[C@@H](O)C[C@H](O[C@H]3[C@@H](O)C[C@H](O[C@H]4CC[C@@]5(C)[C@H](CC[C@@H]6[C@@H]5C[C@@H](O)[C@]5(C)[C@@H](C7=CC(=O)OC7)CC[C@]65O)C4)O[C@@H]3C)O[C@@H]2C)C[C@H](O)[C@@H]1O
Reply text: 1000

Taken from patent US7659310B2.
